Data provenance: ChEMBL document CHEMBL6096703

Record form. Attribute: inhibition. Fill in for each entry.
MEASUREMENT TARGET: Poly [ADP-ribose] polymerase 1 (Homo sapiens, UniProt P09874)
Sequence (P09874 whole entry): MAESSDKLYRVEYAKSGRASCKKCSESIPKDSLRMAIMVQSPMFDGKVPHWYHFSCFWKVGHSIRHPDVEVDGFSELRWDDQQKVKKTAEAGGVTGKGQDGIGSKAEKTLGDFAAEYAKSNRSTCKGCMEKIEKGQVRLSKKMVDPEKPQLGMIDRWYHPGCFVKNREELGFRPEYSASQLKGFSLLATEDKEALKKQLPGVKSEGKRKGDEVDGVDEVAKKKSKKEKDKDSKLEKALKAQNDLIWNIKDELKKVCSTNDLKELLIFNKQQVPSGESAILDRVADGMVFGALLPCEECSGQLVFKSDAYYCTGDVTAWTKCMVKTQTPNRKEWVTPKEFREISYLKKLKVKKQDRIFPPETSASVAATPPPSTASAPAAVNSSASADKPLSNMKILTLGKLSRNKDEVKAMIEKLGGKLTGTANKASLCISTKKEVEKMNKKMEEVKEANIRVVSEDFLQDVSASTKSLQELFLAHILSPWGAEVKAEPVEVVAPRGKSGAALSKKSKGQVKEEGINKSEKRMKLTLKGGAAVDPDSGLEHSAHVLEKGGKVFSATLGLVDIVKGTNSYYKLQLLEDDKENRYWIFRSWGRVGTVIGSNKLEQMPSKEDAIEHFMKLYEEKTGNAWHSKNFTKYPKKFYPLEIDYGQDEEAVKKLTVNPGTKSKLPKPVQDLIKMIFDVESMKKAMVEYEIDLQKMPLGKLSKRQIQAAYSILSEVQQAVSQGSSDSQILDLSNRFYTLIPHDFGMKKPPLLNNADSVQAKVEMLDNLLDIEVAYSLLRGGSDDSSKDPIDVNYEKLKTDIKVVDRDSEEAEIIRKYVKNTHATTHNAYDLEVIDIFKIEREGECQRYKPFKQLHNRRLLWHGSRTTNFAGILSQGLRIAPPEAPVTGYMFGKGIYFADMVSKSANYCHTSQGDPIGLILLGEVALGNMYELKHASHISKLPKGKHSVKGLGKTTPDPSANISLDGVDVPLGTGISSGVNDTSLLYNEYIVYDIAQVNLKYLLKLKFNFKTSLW
METHOD NOTES: Inhibition of PARP1 (unknown origin) at 1 nM preincubated with compound for 10 mins followed by DNA and NAD+ addition and measured after 60 mins by chemiluminescence based envision reader analysis relative to control
DETAILS: time 70.0 min
Express it in %; write the number only.

# input What inhibition value was documented for this compound, CCc1cc2ncc(CN3CC=C(c4cc(C)c(F)c(C)c4)CC3)cc2[nH]c1=O ?
# output -3.8

# input What inhibition value was documented for this compound, CCc1cc2ncc(CN3CC=C(c4ccc(C#N)c(F)c4F)CC3)cc2[nH]c1=O ?
# output 54.7

# input What inhibition value was documented for this compound, CCc1cc2ncc(CN3CC=C(c4ncc(C#N)cc4C)CC3)cc2[nH]c1=O ?
# output 15.9

# input What inhibition value was documented for this compound, CCc1cc2ncc(CN3CC=C(c4cnc(C#N)cn4)CC3)cc2[nH]c1=O ?
# output 45.8

# input What inhibition value was documented for this compound, CCc1cc2ncc(CN3CC=C(c4ccc(F)cn4)CC3)cc2[nH]c1=O ?
# output 91.4

# input What inhibition value was documented for this compound, CCc1cc2ncc(CN3CC=C(c4ccncc4C#N)CC3)cc2[nH]c1=O ?
# output 13.7

# input What inhibition value was documented for this compound, CCc1cc2ncc(CN3CC=C(c4ccc(C#N)cc4F)CC3)cc2[nH]c1=O ?
# output 96.9

# input What inhibition value was documented for this compound, CCc1cc2ncc(CN3CC=C(c4ccc(N)nc4)CC3)cc2[nH]c1=O ?
# output 10

# input What inhibition value was documented for this compound, CCc1cc2ncc(CN3CC=C(c4ncccc4C#N)CC3)cc2[nH]c1=O ?
# output -9.3

# input What inhibition value was documented for this compound, CCc1cc2ncc(CN3CC=C(c4ccc(C(F)(F)F)nc4)CC3)cc2[nH]c1=O ?
# output 56.9

# input What inhibition value was documented for this compound, CCc1cc2ncc(CN3CC=C(c4c(F)cc(C#N)cc4F)CC3)cc2[nH]c1=O ?
# output 10.5

# input What inhibition value was documented for this compound, CCc1cc2ncc(CN3CC=C(c4ccc(C(=O)NC)nc4N)CC3)cc2[nH]c1=O ?
# output 27.2

# input What inhibition value was documented for this compound, CCc1cc2ncc(CN3CC=C(c4cc(F)c(C#N)cn4)CC3)cc2[nH]c1=O ?
# output 88.6

# input What inhibition value was documented for this compound, CCc1cc2ncc(CN3CC=C(c4cnc5ccnn5c4)CC3)cc2[nH]c1=O ?
# output 46.3

# input What inhibition value was documented for this compound, CCc1cc2ncc(CN3CC=C(c4ccc([N+](=O)[O-])cc4F)CC3)cc2[nH]c1=O ?
# output 72.1

# input What inhibition value was documented for this compound, CCc1cc2ncc(CN3CC=C(c4ccc(C#N)cc4)CC3)cc2[nH]c1=O ?
# output 75.6

* * *

Test system: MDA-MB-436
METHOD NOTES: Antiproliferative activity against human MDA-MB-436 cells assessed as inhibition of cell proliferation at 100 nM incubated for 7 days by CCK-8 assay relative to control
Assay type: functional
DETAILS: MDA-MB-436, 168 h, time 7 day
Answer not met if inhibition at 0.1 µM is under 30%, and met if it is 30% or more.

# input Assess whether reported inhibition at 0.1 µM for CCc1cc2ncc(CN3CC=C(c4ccc(C(=O)NC)nc4OC)CC3)cc2[nH]c1=O sits at 30% or higher.
# output met

# input Assess whether reported inhibition at 0.1 µM for CCc1cc2ncc(CN3CC=C(c4ccc(N)nc4)CC3)cc2[nH]c1=O sits at 30% or higher.
# output met

# input Assess whether reported inhibition at 0.1 µM for CCc1cc2ncc(CN3CC=C(c4ccc(OC)nc4C)CC3)cc2[nH]c1=O sits at 30% or higher.
# output not met

# input Assess whether reported inhibition at 0.1 µM for CCc1cc2ncc(CN3CC=C(c4cnc(C(=O)NC)nc4)CC3)cc2[nH]c1=O sits at 30% or higher.
# output met

# input Assess whether reported inhibition at 0.1 µM for CCc1cc2ncc(CN3CC=C(c4ncc(C(=O)NC)nc4C)CC3)cc2[nH]c1=O sits at 30% or higher.
# output met

# input Assess whether reported inhibition at 0.1 µM for CCc1cc2ncc(CN3CC=C(c4cc(F)c(C)c(F)c4)CC3)cc2[nH]c1=O sits at 30% or higher.
# output not met

# input Assess whether reported inhibition at 0.1 µM for CCc1cc2ncc(CN3CC=C(c4ccc(C(=O)NC)nc4N)CC3)cc2[nH]c1=O sits at 30% or higher.
# output not met

# input Assess whether reported inhibition at 0.1 µM for CCc1cc2ncc(CN3CC=C(c4ccc(C#N)c(F)c4F)CC3)cc2[nH]c1=O sits at 30% or higher.
# output met

# input Assess whether reported inhibition at 0.1 µM for CCc1cc2ncc(CN3CC=C(c4cnc(C#N)cn4)CC3)cc2[nH]c1=O sits at 30% or higher.
# output met

# input Assess whether reported inhibition at 0.1 µM for CCc1cc2ncc(CN3CC=C(c4ccc(C#N)s4)CC3)cc2[nH]c1=O sits at 30% or higher.
# output met

# input Assess whether reported inhibition at 0.1 µM for CCc1cc2ncc(CN3CC=C(c4ncccc4C#N)CC3)cc2[nH]c1=O sits at 30% or higher.
# output not met

# input Assess whether reported inhibition at 0.1 µM for CCc1cc2ncc(CN3CC=C(c4c(F)cc(C#N)cc4F)CC3)cc2[nH]c1=O sits at 30% or higher.
# output not met

# input Assess whether reported inhibition at 0.1 µM for CCc1cc2ncc(CN3CC=C(c4ccc(C(F)(F)F)nc4)CC3)cc2[nH]c1=O sits at 30% or higher.
# output not met

# input Assess whether reported inhibition at 0.1 µM for CCc1cc2ncc(CN3CC=C(c4ccccc4C#N)CC3)cc2[nH]c1=O sits at 30% or higher.
# output met

# input Assess whether reported inhibition at 0.1 µM for CCc1cc2ncc(CN3CC=C(c4ncc(C#N)cc4C)CC3)cc2[nH]c1=O sits at 30% or higher.
# output not met

# input Assess whether reported inhibition at 0.1 µM for CCc1cc2ncc(CN3CC=C(c4ccc(C#N)cc4)CC3)cc2[nH]c1=O sits at 30% or higher.
# output met

# input Assess whether reported inhibition at 0.1 µM for CCc1cc2ncc(CN3CC=C(c4cnccc4C(=O)NC)CC3)cc2[nH]c1=O sits at 30% or higher.
# output not met

# input Assess whether reported inhibition at 0.1 µM for CCc1cc2ncc(CN3CC=C(c4ccc(C)cc4F)CC3)cc2[nH]c1=O sits at 30% or higher.
# output not met

# input Assess whether reported inhibition at 0.1 µM for CCc1cc2ncc(CN3CC=C(c4ncccc4C(=O)NC)CC3)cc2[nH]c1=O sits at 30% or higher.
# output not met

# input Assess whether reported inhibition at 0.1 µM for CCc1cc2ncc(CN3CC=C(c4ccc(C(=O)NC)c(F)c4F)CC3)cc2[nH]c1=O sits at 30% or higher.
# output not met
